Data origin: patent US8012979B2

Each entry below carries its reported IC50.
molecular target: human active recombinant p38α-6His tagged (Homo sapiens); construct: 6His; assay: p38 Alpha Enzyme Assay (AlphaScreen, biotinylated-ATF2 substrate); assay type: biochemical; conditions: pre-incubated 4 hours at 37° C., reaction initiated with ATP; 0.5 nM enzyme; read-out: p38 pIC50 (converted)
Sequence (Q16539 whole entry): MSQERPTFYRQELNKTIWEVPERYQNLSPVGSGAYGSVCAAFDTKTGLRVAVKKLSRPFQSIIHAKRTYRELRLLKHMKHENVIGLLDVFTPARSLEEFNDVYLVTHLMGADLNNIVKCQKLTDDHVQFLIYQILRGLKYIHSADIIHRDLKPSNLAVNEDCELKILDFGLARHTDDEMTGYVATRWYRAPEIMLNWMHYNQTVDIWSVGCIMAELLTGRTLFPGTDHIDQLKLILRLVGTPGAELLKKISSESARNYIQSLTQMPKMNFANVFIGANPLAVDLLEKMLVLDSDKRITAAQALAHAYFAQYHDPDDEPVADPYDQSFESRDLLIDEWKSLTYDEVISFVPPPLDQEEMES
Express the result in nM but write the number alone.

Below, each entry is followed by its recorded IC50 result.
Cc1ccc(C(=O)NC2CC2)cc1-c1ccc2c(=O)n(Cc3ccc(C(=O)O)cc3)cc(CN3CCCN(C)CC3)c2c1 [Example 104]    0.2
Cc1c(F)cc(C(=O)NC2CC2)cc1-c1ccc2c(=O)n(CC3CC3)cc(CNCC3CCNCC3)c2c1 [Example 89]    0.794
Cc1ccc(C(=O)NC2CC2)cc1-c1ccc2c(=O)n(Cc3ccc(OCCN(C)C)cc3)ccc2c1 [Example 32]    0.501

Look up IC50: Cc1ccc(C(=O)NC2CC2)cc1-c1ccc2c(=O)n(C(C)c3ccccc3)ccc2c1 (stereo not shown) [Example 121]
3.98

Repeat with Cc1ccc(C(=O)NC2CC2)cc1-c1ccc2c(=O)n(CC3CC3)ccc2c1 [Example 122]
1.58

Repeat with Cc1ccc(C(=O)NC2CC2)cc1-c1ccc2c(=O)n(Cc3ccccc3)cc(C(=O)NC3CCN(C)CC3)c2c1 [Example 50]
2

Repeat with Cc1ccc(C(=O)NC2CC2)cc1-c1ccc2c(=O)n(CC3CC3)cc(C(=O)NC3CCN(C)CC3)c2c1 [Example 38]
3.98
